// endpoint IC50 / system PIK3CB (Human)

Some compounds with recorded IC50:
| structure-smiles-string | result |
| --- | --- |
| C[C@H](O)CNC(=O)c1cccc(-c2cc3nc(-c4cccc5[nH]ncc45)nc(N4CCOCC4)c3s2)c1 | < 100 nM |
| Cc1c(-c2cccc(S(C)(=O)=O)c2)sc2c(N3CCOCC3)nc(-c3cccc4[nH]ncc34)nc12 | < 100 nM |

Below: the item to evaluate.
// query Consider the compound NCC(=O)Nc1cccc(-c2cc3nc(-c4cccc5[nH]ncc45)nc(N4CCOCC4)c3s2)c1 tested on PIK3CB (Human); state its IC50.
// result < 100 nM

====

measurement-target: PIK3CG (human) (UniProt P48736)
Sequence (P48736 whole entry, looked up): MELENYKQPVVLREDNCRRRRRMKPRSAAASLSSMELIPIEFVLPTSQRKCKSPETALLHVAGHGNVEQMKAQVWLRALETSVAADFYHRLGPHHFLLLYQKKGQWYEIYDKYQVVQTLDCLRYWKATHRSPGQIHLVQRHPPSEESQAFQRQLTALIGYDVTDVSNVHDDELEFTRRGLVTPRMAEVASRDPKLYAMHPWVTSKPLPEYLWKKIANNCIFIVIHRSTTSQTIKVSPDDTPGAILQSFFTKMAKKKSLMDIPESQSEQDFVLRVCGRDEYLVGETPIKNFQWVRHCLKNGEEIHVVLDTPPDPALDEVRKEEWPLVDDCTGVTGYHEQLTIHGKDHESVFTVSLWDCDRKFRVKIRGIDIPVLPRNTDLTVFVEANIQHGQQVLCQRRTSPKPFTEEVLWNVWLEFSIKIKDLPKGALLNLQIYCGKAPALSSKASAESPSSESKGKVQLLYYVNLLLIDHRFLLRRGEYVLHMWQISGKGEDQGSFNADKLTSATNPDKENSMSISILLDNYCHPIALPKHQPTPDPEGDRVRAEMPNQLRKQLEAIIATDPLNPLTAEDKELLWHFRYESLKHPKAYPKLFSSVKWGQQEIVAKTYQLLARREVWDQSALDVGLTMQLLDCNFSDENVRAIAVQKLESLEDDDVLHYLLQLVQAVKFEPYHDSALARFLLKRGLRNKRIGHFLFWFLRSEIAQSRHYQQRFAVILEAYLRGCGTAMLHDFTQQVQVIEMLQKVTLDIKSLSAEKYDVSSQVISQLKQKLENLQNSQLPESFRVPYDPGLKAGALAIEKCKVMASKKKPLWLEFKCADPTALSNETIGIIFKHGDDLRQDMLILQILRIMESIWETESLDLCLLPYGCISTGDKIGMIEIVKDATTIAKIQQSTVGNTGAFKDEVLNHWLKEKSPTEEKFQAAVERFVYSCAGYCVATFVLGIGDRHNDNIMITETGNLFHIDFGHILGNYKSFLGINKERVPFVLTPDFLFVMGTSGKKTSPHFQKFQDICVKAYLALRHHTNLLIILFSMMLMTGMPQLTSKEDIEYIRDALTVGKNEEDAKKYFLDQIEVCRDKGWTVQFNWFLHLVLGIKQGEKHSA
procedure-text: Assessment of PIK3CG Kinase Activity
measurement-kind: IC50

Some compounds with recorded IC50:
| structure-smiles-string | measurement-kind | result |
| --- | --- | --- |
| COC/C=C/c1cc2nc(-c3cccc4[nH]ncc34)nc(N3CCOCC3)c2s1 | IC50 | < 100 nM |
| CNC(=O)c1cccc(-c2cc3nc(-c4cccc5[nH]ncc45)nc(N4CCOCC4)c3s2)c1 | IC50 | < 100 nM |
| c1cc(-c2nc(N3CCOCC3)c3sc(-c4cn[nH]c4)cc3n2)c2cn[nH]c2c1 | IC50 | < 100 nM |
| O=C(NCc1cc2nc(-c3cccc4[nH]ncc34)nc(N3CCOCC3)c2s1)N1CCOCC1 | IC50 | < 100 nM |
| CCNC(=O)c1cc2nc(-c3cccc4[nH]ncc34)nc(N3CCOCC3)c2s1 | IC50 | > 100 nM |

Below: the item to evaluate.
// query Output IC50 of CN(Cc1cc2c(N3CCOCC3)nc(-c3cnc4[nH]ccc4c3)nc2s1)S(C)(=O)=O
// result < 100 nM

====

pIC50: −log10 of the molar value.
// endpoint pIC50 / system PIK3CB (Human) (UniProt P42338)

Some compounds with recorded pIC50:
| structure-smiles-string | measurement-target | result |
| --- | --- | --- |
| O=S(=O)(NCCN1CCCCC1)c1cc2nc(-c3cccc4[nH]ncc34)nc(N3CCOCC3)c2s1 | PIK3CB (Human) (UniProt P42338) | > 7.00 |
| CC(=O)Nc1cccc(-c2cc3nc(-c4cccc5[nH]ncc45)nc(N4CCOCC4)c3s2)c1 | PIK3CB (Human) (UniProt P42338) | > 7.00 |
| O=C(NOCC1CC1)c1cc2nc(-c3cccc4[nH]ncc34)nc(N3CCOCC3)c2s1 | PIK3CB (Human) (UniProt P42338) | < 7.00 |
| O=C(NCCN1CCCCC1)c1cc2nc(-c3cccc4[nH]ncc34)nc(N3CCOCC3)c2s1 | PIK3CB (Human) (UniProt P42338) | < 7.00 |
| COc1ccc(NCc2cc3nc(-c4cccc5[nH]ncc45)nc(N4CCOCC4)c3s2)cn1 | PIK3CB (Human) (UniProt P42338) | < 7.00 |
| CN(Cc1cc2nc(-c3cccc4[nH]ncc34)nc(N3CCOCC3)c2s1)C(=O)c1ccccc1 | PIK3CB (Human) (UniProt P42338) | < 7.00 |

// query Consider the compound Nc1nc(-c2cc3nc(-c4cnc5[nH]ccc5c4)nc(N4CCOCC4)c3s2)cs1 tested on PIK3CB (Human) (UniProt P42338); state its pIC50.
Sequence (P42338 whole entry, looked up): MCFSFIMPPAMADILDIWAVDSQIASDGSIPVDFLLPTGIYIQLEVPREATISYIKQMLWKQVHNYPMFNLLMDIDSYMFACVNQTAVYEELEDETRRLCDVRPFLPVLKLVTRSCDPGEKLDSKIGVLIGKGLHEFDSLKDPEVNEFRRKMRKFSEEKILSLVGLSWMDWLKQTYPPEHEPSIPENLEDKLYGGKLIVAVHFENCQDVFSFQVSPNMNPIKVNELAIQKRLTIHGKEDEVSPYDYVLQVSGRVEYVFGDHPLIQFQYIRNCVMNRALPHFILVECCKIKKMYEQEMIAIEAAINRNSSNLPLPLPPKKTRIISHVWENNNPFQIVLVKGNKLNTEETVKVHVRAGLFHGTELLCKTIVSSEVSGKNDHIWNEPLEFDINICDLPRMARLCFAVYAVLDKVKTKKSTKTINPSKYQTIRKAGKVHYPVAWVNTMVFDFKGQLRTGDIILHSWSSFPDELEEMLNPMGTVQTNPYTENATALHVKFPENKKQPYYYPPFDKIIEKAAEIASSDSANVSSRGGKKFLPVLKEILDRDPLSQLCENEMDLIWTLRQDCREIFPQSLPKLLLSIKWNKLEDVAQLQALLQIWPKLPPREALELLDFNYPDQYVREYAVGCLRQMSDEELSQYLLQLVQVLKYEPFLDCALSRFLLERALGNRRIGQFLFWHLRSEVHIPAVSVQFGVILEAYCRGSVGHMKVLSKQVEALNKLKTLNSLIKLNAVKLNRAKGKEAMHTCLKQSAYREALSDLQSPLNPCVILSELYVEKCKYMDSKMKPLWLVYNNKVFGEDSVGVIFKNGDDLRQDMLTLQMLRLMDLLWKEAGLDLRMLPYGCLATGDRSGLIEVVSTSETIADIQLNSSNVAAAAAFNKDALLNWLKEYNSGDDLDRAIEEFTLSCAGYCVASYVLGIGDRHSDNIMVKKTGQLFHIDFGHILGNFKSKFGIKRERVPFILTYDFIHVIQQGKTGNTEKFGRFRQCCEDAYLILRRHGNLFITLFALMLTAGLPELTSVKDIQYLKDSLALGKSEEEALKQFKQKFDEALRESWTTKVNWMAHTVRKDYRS
// result > 7.00

// query Consider the compound CS(=O)(=O)c1cccc(-c2cc3nc(-c4cnc5[nH]ccc5c4)nc(N4CCOCC4)c3s2)c1 tested on PIK3CB (Human) (UniProt P42338); state its pIC50.
// result > 7.00

// query Consider the compound COC/C=C/c1cc2nc(-c3cccc4[nH]ncc34)nc(N3CCOCC3)c2s1 tested on PIK3CB (Human) (UniProt P42338); state its pIC50.
// result > 7.00

// query Consider the compound c1cc(-c2nc(N3CCOCC3)c3sc(-c4cn[nH]c4)cc3n2)c2cn[nH]c2c1 tested on PIK3CB (Human) (UniProt P42338); state its pIC50.
// result < 7.00

// query Consider the compound CNC(=O)c1cccc(-c2cc3nc(-c4cccc5[nH]ncc45)nc(N4CCOCC4)c3s2)c1 tested on PIK3CB (Human) (UniProt P42338); state its pIC50.
// result > 7.00

// query Consider the compound CN(Cc1cc2c(N3CCOCC3)nc(-c3cnc4[nH]ccc4c3)nc2s1)S(C)(=O)=O tested on PIK3CB (Human) (UniProt P42338); state its pIC50.
// result > 7.00

====

measurement-target: PIK3CG (human)
pIC50: −log10 of the molar value.
This section presents compounds with their documented pIC50 values.

Some compounds with recorded pIC50:
| structure-smiles-string | measurement-target | result |
| --- | --- | --- |
| OC1(c2cc3nc(-c4cccc5[nH]ncc45)nc(N4CCOCC4)c3s2)CCC1 | PIK3CG (human) | > 7.00 |
| CC(C)(O)c1cc2nc(-c3cccc4[nH]ccc34)nc(N3CCOCC3)c2s1 | PIK3CG (human) | > 7.00 |
| CN(Cc1cc2nc(-c3cccc4[nH]ncc34)nc(N3CCOCC3)c2s1)C(=O)c1ccccc1 | PIK3CG (human) | < 7.00 |

Below: the item to evaluate.
// query Output pIC50 of OCCNc1cc2nc(-c3cccc4[nH]ncc34)nc(N3CCOCC3)c2s1
// result > 7.00

====

pIC50: −log10 of the molar value.
// endpoint pIC50 / system PIK3CB (Human) (UniProt P42338)

Some molecules with recorded pIC50:
| structure-smiles-string | pIC50 |
| --- | --- |
| OCCNc1cc2nc(-c3cccc4[nH]ncc34)nc(N3CCOCC3)c2s1 | < 7.00 |
| c1cc2cc(-c3nc(N4CCOCC4)c4sc(-c5ccc(N6CCOCC6)nc5)cc4n3)cnc2[nH]1 | > 7.00 |
| CC(C)(NC(=O)c1ccccc1)c1cc2nc(-c3cccc4[nH]ncc34)nc(N3CCOCC3)c2s1 | > 7.00 |
| OC1(c2cc3nc(-c4cccc5[nH]ncc45)nc(N4CCOCC4)c3s2)CCC1 | < 7.00 |
| OCc1cccc(-c2cc3nc(-c4cccc5[nH]ncc45)nc(N4CCOCC4)c3s2)c1 | > 7.00 |

// query Output pIC50 of O=C(O)c1cccc(-c2cc3nc(-c4cccc5[nH]ncc45)nc(N4CCOCC4)c3s2)c1
// result > 7.00

// query Output pIC50 of c1cc(-c2nc(N3CCOCC3)c3sc(Cn4ccnc4)cc3n2)c2cn[nH]c2c1
// result < 7.00
